system: expanded OPCs; assay: cells; conditions: Rattus norvegicus, 72 h, read-out: 10 µM (% DMSO), alamarBlue viability of expanded OPCs, compound at 10 µM, sheet All Tox data
# note: exactly 40% is not below, so it is not met; use met for viability at 10 µM strictly under it

INSERT INTO results (molecule, measurement_target, assigned_label) VALUES
  ('COC1=C(OC)C(=O)C(CCCCCCCCCCO)=C(C)C1=O', 'expanded OPCs', 'met');

Next item in the queue.
Input CCOc1cc(N)c(Cl)cc1C(=O)NCC1CN(Cc2ccc(F)cc2)CCO1 (stereo not shown) [Mosapride] ; condition: viability at 10 µM strictly below 40%. Does it hold?
not met

====

tested on: expanded OPCs; assay: cells; conditions: alamarBlue viability of expanded OPCs, compound at 0.1 µM, relative to DMSO control
// reported 0.1 µM (% DMSO) per item
The figure you give is taken to be in % DMSO; do not add the unit.

INSERT INTO measurements (compound, value_type, measured_number) VALUES
  ('Fc1ccc([C@@H]2CCNC[C@H]2COc2ccc3c(c2)OCO3)cc1', '0.1 µM (% DMSO)', 63.3),
  ('CCCC1O[C@@H]2C[C@H]3[C@@H]4CCC5=CC(=O)C=C[C@]5(C)[C@H]4[C@@H](O)C[C@]3(C)[C@]2(C(=O)CO)O1 (stereo partly drawn) [Budesonide]', '0.1 µM (% DMSO)', 112.0),
  ('Clc1ccc(COC(Cn2ccnc2)c2ccc(Cl)cc2Cl)cc1 (stereo not drawn)', '0.1 µM (% DMSO)', 178.0),
  ('CC(CN1c2ccccc2Sc2ccccc21)N(C)C (stereo not drawn)', '0.1 µM (% DMSO)', 68.4),
  ('Nc1ncn([C@@H]2O[C@H](CO)[C@@H](O)[C@H]2O)c(=O)n1', '0.1 µM (% DMSO)', 92.1),
  ('O=c1[nH]cc(F)c(=O)[nH]1', '0.1 µM (% DMSO)', 80.9),
  ('CO/N=C(\C(=O)N[C@@H]1C(=O)N2C(C(=O)O)=C(COC(C)=O)CS[C@H]12)c1csc(N)n1', '0.1 µM (% DMSO)', 97.0),
  ('CC(C)NCC(O)c1cc(O)cc(O)c1 (stereo not drawn)', '0.1 µM (% DMSO)', 89.2);

Item CN(C)CCCN1c2ccccc2CCc2ccc(Cl)cc21 has what recorded 0.1 µM (% DMSO)?
76.2

====

Below, each entry is listed with its recorded 2 uM (% Quet).
tested on: acutely dissociated and purified rat OPCs; experiment: Acute OL differentiation assay (MBP expression/cell, immunofluorescent image quantification); format: cell-based; settings: test compound at 2 uM; MBP expression relative to quetiapine; NCC library screen, sheet "All OLga data"
Include the unit after the number when you answer.

Known 2 uM (% Quet) results, listed for orientation:
INSERT INTO assay_data (compound, result) VALUES
  ('O.O.O=C1N=C([O-])CN1/N=C/c1ccc(-c2ccc([N+](=O)[O-])cc2)o1.[Na+] [Dantrolene sodium salt dihydrate]', '-16.0 % Quet'),
  ('CN1CCN2c3ncccc3Cc3ccccc3C2C1 (centres unmarked)', '-49.3 % Quet'),
  ('Cl.Cl.O=C(O)COCCN1CCN(C(c2ccccc2)c2ccc(Cl)cc2)CC1 (centres unmarked)', '3.4 % Quet');

Look up 2 uM (% Quet) for this compound: C[C@@H]1C[C@H]2[C@@H]3CCC4=CC(=O)C=C[C@]4(C)[C@@]3(F)[C@@H](O)C[C@]2(C)[C@@]1(O)C(=O)CO
-1.3 % Quet

Query C[C@H]1C[C@H]2[C@@H]3CCC4=CC(=O)C=C[C@]4(C)[C@@]3(Cl)[C@@H](O)C[C@]2(C)[C@@]1(O)C(=O)CO next
-121.4 % Quet

Where do the numbers come from? From paper PMC5011342.
